tested-system: human recombinant adrenergic α2A receptor (Homo sapiens, UniProt P08913)
Construct: expressed in transfected cells; host or cells: insect Sf9 cells
Sequence (P08913 whole entry): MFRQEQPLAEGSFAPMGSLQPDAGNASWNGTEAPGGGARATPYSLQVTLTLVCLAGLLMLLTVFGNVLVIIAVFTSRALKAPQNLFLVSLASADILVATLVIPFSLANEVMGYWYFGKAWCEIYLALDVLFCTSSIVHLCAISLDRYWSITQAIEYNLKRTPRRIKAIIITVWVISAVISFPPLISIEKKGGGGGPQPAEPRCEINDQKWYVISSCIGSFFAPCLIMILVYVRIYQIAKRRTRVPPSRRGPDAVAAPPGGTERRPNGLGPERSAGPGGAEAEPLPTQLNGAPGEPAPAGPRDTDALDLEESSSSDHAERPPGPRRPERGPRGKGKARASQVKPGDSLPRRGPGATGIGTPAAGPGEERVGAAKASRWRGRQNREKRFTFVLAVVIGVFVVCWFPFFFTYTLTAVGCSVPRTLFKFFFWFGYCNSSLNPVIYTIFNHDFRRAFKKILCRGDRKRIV
measurement-protocol: Radioligand binding, adrenergic α2A receptor ([3H]MK-912)
test-settings: 0.1 μM compound; Sf9 cells; 1 nM [3H]MK-912; read-out: Percentage inhibition of ligand binding, Adrenergic α2A
quantity-kind: inhibition at 0.1 µM (%)
Entry rule: numbers only, all in %.

### Prompt Fill in the recorded inhibition at 0.1 µM for this molecule, with human recombinant adrenergic α2A receptor (Homo sapiens, UniProt P08913) as test system: `Cc1ccc2c(c1)c1c(n2-c2cscc2-c2ccc(O)nc2)CCN(C)C1`
### Response -3

### Prompt Fill in the recorded inhibition at 0.1 µM for this molecule, with human recombinant adrenergic α2A receptor (Homo sapiens, UniProt P08913) as test system: `Cc1ccc2c(c1)c1c(n2-c2cccc(-c3ccc(F)cc3)c2)CCN(C)C1`
### Response 23

### Prompt Fill in the recorded inhibition at 0.1 µM for this molecule, with human recombinant adrenergic α2A receptor (Homo sapiens, UniProt P08913) as test system: `CC(=O)Nc1ccc(-c2ccc(-n3c4c(c5cc(C)ccc53)CN(C)CC4)nc2)cn1`
### Response 18

### Prompt Fill in the recorded inhibition at 0.1 µM for this molecule, with human recombinant adrenergic α2A receptor (Homo sapiens, UniProt P08913) as test system: `Cc1ccc2c(c1)c1c(n2-c2ccccc2-c2cncc3ccccc23)CCN(C)C1`
### Response 30

### Prompt Fill in the recorded inhibition at 0.1 µM for this molecule, with human recombinant adrenergic α2A receptor (Homo sapiens, UniProt P08913) as test system: `Cc1ccc2c(c1)c1c(n2-c2cccc3ccncc23)CCN(C)C1`
### Response 22

### Prompt Fill in the recorded inhibition at 0.1 µM for this molecule, with human recombinant adrenergic α2A receptor (Homo sapiens, UniProt P08913) as test system: `Cc1csc(-c2cccc(-n3c4c(c5cc(C)ccc53)CN(C)CC4)c2)c1`
### Response 30

### Prompt Fill in the recorded inhibition at 0.1 µM for this molecule, with human recombinant adrenergic α2A receptor (Homo sapiens, UniProt P08913) as test system: `Cc1ccc2c(c1)c1c(n2-c2cccc(-c3ccc(O)nc3)c2)CCN(C)C1`
### Response 43

### Prompt Fill in the recorded inhibition at 0.1 µM for this molecule, with human recombinant adrenergic α2A receptor (Homo sapiens, UniProt P08913) as test system: `Cc1ccc2c(c1)c1c(n2-c2ccc(-c3ccc(S(N)(=O)=O)cc3)cn2)CCN(C)C1`
### Response 71

### Prompt Fill in the recorded inhibition at 0.1 µM for this molecule, with human recombinant adrenergic α2A receptor (Homo sapiens, UniProt P08913) as test system: `Cc1ccc2c(c1)c1c(n2-c2cccc(-c3ccc(S(N)(=O)=O)cc3)c2)CCN(C)C1`
### Response 73

### Prompt Fill in the recorded inhibition at 0.1 µM for this molecule, with human recombinant adrenergic α2A receptor (Homo sapiens, UniProt P08913) as test system: `Cc1ccc2c(c1)c1c(n2-c2ccc(-c3cncc4ccccc34)cn2)CCN(C)C1`
### Response 56

### Prompt Fill in the recorded inhibition at 0.1 µM for this molecule, with human recombinant adrenergic α2A receptor (Homo sapiens, UniProt P08913) as test system: `Cc1ccc2c(c1)c1c(n2-c2cccc(-c3ccc4[nH]cnc4c3)c2)CCN(C)C1`
### Response 23

### Prompt Fill in the recorded inhibition at 0.1 µM for this molecule, with human recombinant adrenergic α2A receptor (Homo sapiens, UniProt P08913) as test system: `CC(=O)Nc1ccc(-c2ccccc2-n2c3c(c4cc(C)ccc42)CN(C)CC3)cn1`
### Response 20

### Prompt Fill in the recorded inhibition at 0.1 µM for this molecule, with human recombinant adrenergic α2A receptor (Homo sapiens, UniProt P08913) as test system: `Cc1ccc2c(c1)c1c(n2-c2cscc2-c2cc3ccccc3s2)CCN(C)C1`
### Response 96

### Prompt Fill in the recorded inhibition at 0.1 µM for this molecule, with human recombinant adrenergic α2A receptor (Homo sapiens, UniProt P08913) as test system: `Cc1ccc2c(c1)c1c(n2-c2cccc(-c3cnn(C)c3)c2)CCN(C)C1`
### Response 48

### Prompt Fill in the recorded inhibition at 0.1 µM for this molecule, with human recombinant adrenergic α2A receptor (Homo sapiens, UniProt P08913) as test system: `Cc1ccc2c(c1)c1c(n2-c2ccc(-c3cnc(N(C)C)nc3)cn2)CCN(C)C1`
### Response 40

### Prompt Fill in the recorded inhibition at 0.1 µM for this molecule, with human recombinant adrenergic α2A receptor (Homo sapiens, UniProt P08913) as test system: `Cc1csc(-c2ccccc2-n2c3c(c4cc(C)ccc42)CN(C)CC3)c1`
### Response 90

### Prompt Fill in the recorded inhibition at 0.1 µM for this molecule, with human recombinant adrenergic α2A receptor (Homo sapiens, UniProt P08913) as test system: `Cc1ccc2c(c1)c1c(n2-c2ccccc2-c2c(C)noc2C)CCN(C)C1`
### Response 30
